# Tested target: human neuropeptide Y5 receptor (Homo sapiens, UniProt Q15761)
# Construct: expressed in transfected cells; cell membranes
# Sequence (Q15761 whole entry): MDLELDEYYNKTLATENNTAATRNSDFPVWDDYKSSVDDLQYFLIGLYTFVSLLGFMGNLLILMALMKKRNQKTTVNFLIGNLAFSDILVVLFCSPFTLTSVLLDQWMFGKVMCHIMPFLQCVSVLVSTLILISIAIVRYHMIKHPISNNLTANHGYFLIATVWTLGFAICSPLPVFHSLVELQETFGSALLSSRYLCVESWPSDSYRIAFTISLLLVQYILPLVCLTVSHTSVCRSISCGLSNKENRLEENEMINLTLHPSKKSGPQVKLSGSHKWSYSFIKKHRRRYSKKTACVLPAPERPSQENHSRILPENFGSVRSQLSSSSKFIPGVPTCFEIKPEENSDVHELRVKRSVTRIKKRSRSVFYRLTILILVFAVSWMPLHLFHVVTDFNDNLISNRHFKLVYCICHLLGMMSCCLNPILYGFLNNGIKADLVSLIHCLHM
# Method: NPY5 HTS Centrifugation Assay: competition of 125I-PYY binding to membranes of NPY5-transfected HEK293 cells
# Applied conditions: 3 uM; 80 pM 125I-PYY; human NPY Y5 receptor; 1 hr room temperature; read-out: % Inhibition of 125I-PYY Binding @ 3 uM
Structures can show the parent of a compound that is named as a salt.
Measure name: inhibition at 3 µM (%)
Quick note: give the figure in %, leave out the unit.

Past entries and their recorded results:
{"columns": ["Compound", "inhibition at 3 µM [%]"],
 "data": [
  ["Fc1ccc(C[C@@H]2c3ccccc3CC[C@@H]2NCCCc2ccccc2)cc1 (racemic) [Compound 24, monohydrobromide]", 19],
  ["Fc1ccc(CN[C@H]2CCc3ccccc3[C@H]2Cc2ccccc2)cc1 (racemic) [Compound 9, monohydrobromide]", 20],
  ["COc1ccccc1CN[C@H]1CCc2ccccc2[C@H]1Cc1ccc2ccccc2c1 (racemic) [Compound 22, monohydrobromide]", 15],
  ["COc1ccc(CCN[C@@H]2CCc3cc(OC)ccc3[C@@H]2Cc2ccccc2)cc1 (relative stereo)", 62],
  ["Fc1ccc(CCN[C@@H]2CCc3ccccc3[C@@H]2Cc2ccccc2)cc1 (relative stereo) [Compound 14, monohydrobromide]", 13],
  ["COc1ccc2c(c1)CC[C@@H](NCCc1ccc(OC)c(OC)c1)[C@H]2Cc1cccc2ccccc12 (relative stereo)", 16]
]}

Exercise: Quick check: inhibition at 3 µM of COc1ccc(C[C@H]2c3ccc(OC)cc3CC[C@H]2NCCc2ccc(OC)c(OC)c2)cc1 (relative stereo) ?
Solution: 89
